System: AMPK-alpha2;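 also: KINOMEscan kinase panel screen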
Construct: gene PRKAA2
CONDITION_PARAMETERS: concentration: 1 μM, replicates: in singlicate; n = 1
Kindly supply the reported %Inh values for the records listed here.
Kindly provide the numeric value in % only, without the unit symbol.

Request the reported %Inh associated with CN1CCC(n2cnc(-c3ccc(F)cc3)c2-c2ccnc(NC3CCNCC3)n2)CC1 [SB-229482] 12

What does the data say about its %Inh? Entry: FC(F)(F)c1cc(Nc2nccc(-c3c(-c4ccc(Cl)cc4)nn4ncccc34)n2)ccc1Cl [GW829351] 0

Name the reported %Inh value associated with the molecule Cn1ccc2ncnc(Nc3ccc(Oc4cccc(Cl)c4)c(Cl)c3)c21 20

Which %Inh value belongs to O=C(CCO)NCCn1ccc2ncnc(Nc3ccc(Oc4cccc(C(F)(F)F)c4)c(Cl)c3)c21 ? 0
